Assay: Aqueous solubility of the compound at 1 mg measured after 12 hrs by shake flask method
Format: physicochemical
Details: water
I'd appreciate it if you could supply solubility thermodynamic at 12 h values for the items below.

Guide cases for solubility thermodynamic at 12 h, answers given:
Compound	solubility thermodynamic at 12 h
O=C(/C=C/c1cc(O)ccc1O)CC(=O)/C=C/c1cccc(O)c1O	100 µM
O=C(/C=C/c1ccc(O)cc1)/C=C/c1cccc(O)c1O	120 µM
O=C(/C=C/c1cccc(O)c1)CC(=O)c1ccc(O)c(O)c1	25 µM

Provide the reported solubility thermodynamic at 12 h of each entry below, same order.
1. O=C(/C=C/c1cccc(O)c1O)c1cc(O)ccc1O
2. O=C(/C=C/c1ccc(O)c(O)c1)c1cc(O)ccc1O
3. O=C(/C=C/c1ccc(O)cc1)/C=C/c1ccc(O)c(O)c1
4. O=C(/C=C/c1cc(O)ccc1O)/C=C/c1cccc(O)c1O

Result string:
["33 µM", "16 µM", "19 µM", "271 µM"]

Provide the reported solubility thermodynamic at 12 h of each entry below, same order.
1. O=C(/C=C/c1ccc(O)cc1)CC(=O)/C=C/c1cc(O)ccc1O
2. O=C(/C=C/c1cccc(O)c1)/C=C/c1cccc(O)c1O
3. O=C(/C=C/c1ccccc1O)CC(=O)/C=C/c1cccc(O)c1O
4. O=C(/C=C/c1ccccc1O)CC(=O)c1ccc(O)c(O)c1
5. O=C(/C=C/c1ccc(O)c(O)c1)/C=C/c1ccccc1O
6. O=C(/C=C/c1cc(O)ccc1O)CC(=O)c1cccc(O)c1O
7. O=C(/C=C/c1cc(O)ccc1O)CC(=O)/C=C/c1cc(O)ccc1O

Result string:
1. 0.57 µM
2. 184 µM
3. 11 µM
4. 77 µM
5. 111 µM
6. 32 µM
7. 5 µM

Provide the reported solubility thermodynamic at 12 h of each entry below, same order.
1. O=C(/C=C/c1cc(O)ccc1O)CC(=O)c1ccc(O)c(O)c1
2. O=C(/C=C/c1cccc(O)c1)CC(=O)/C=C/c1cc(O)ccc1O
3. O=C(/C=C(O)/C=C/c1ccccc1O)/C=C/c1ccc(O)c(O)c1
4. COc1cc(/C=C/C(=O)CC(=O)/C=C/c2ccc(O)c(OC)c2)ccc1O [CURCUMIN]
5. O=C(/C=C/c1ccc(O)cc1)CC(=O)/C=C/c1cccc(O)c1O
6. O=C(/C=C/c1cccc(O)c1O)CC(=O)/C=C/c1cccc(O)c1O
7. O=C(/C=C/c1ccc(O)c(O)c1)CC(=O)/C=C/c1cccc(O)c1O

Result string:
47 µM
5.8 µM
31 µM
0.19 µM
4.8 µM
5.3 µM
3.8 µM

Provide the reported solubility thermodynamic at 12 h of each entry below, same order.
1. O=C(/C=C/c1ccc(O)c(O)c1)/C=C/c1cc(O)ccc1O
2. O=C(/C=C/c1ccccc1O)CC(=O)/C=C/c1cc(O)ccc1O

Result string:
1: 123 µM; 2: 4.4 µM

---

Assay: Cytotoxicity against rat PC12 cells measured after 24 hrs by WST8/PMS assay
Assay type: cell-based, PC-12
Measure name: CC50 at 24 h (µM)
Numbers only, in µM.

Guide cases for CC50 at 24 h, answers given:
Molecule	Readout units	CC50 at 24 h
O=C(/C=C/c1ccccc1O)CC(=O)/C=C/c1cc(O)ccc1O	µM	38
O=C(/C=C/c1cccc(O)c1)/C=C/c1cccc(O)c1O	µM	46
O=C(/C=C/c1ccc(O)cc1)/C=C/c1ccc(O)c(O)c1	µM	12

Provide the reported CC50 at 24 h of each entry below, same order.
1. O=C(/C=C/c1cc(O)ccc1O)CC(=O)c1cccc(O)c1O
2. O=C(/C=C/c1ccc(O)c(O)c1)CC(=O)/C=C/c1cc(O)ccc1O
3. O=C(/C=C/c1cccc(O)c1O)c1cc(O)ccc1O

Result string:
1. 63
2. 51
3. 89

---

Assay: Cytotoxicity against rat PC12 cells measured after 24 hrs by WST8/PMS assay
Type: cell-based, PC-12
Measure name: CC50 at 24 h

Guide cases for CC50 at 24 h, answers given:
Molecule	Measure name	Recorded value
O=C(/C=C/c1ccc(O)cc1)CC(=O)/C=C/c1cccc(O)c1O	CC50 at 24 h	8.5 µM
O=C(/C=C/c1ccc(O)cc1)CC(=O)/C=C/c1cc(O)ccc1O	CC50 at 24 h	21 µM
O=C(/C=C/c1cccc(O)c1)CC(=O)/C=C/c1cc(O)ccc1O	CC50 at 24 h	15 µM

Provide the reported CC50 at 24 h of each entry below, same order.
1. O=C(/C=C/c1ccc(O)c(O)c1)CC(=O)/C=C/c1cccc(O)c1O
2. O=C(/C=C/c1cccc(O)c1)CC(=O)/C=C/c1cccc(O)c1O
3. O=C(/C=C/c1cccc(O)c1O)CC(=O)/C=C/c1cccc(O)c1O

Result string:
["16 µM", "38 µM", "39 µM"]

---

Molecular target: Amyloid-beta precursor protein (Homo sapiens)
Assay: Inhibition of self-induced amyloid beta 42 (unknown origin) fibril formation at 10 uM incubated for 6 hrs by thioflavin-T fluorescence assay relative to control
I'd appreciate it if you could supply inhibition values for the items below.

Guide cases for inhibition, answers given:
Molecule	Target or test system	Recorded value
O=C(/C=C/c1ccc(O)c(O)c1)CC(=O)/C=C/c1cccc(O)c1O	Amyloid-beta precursor protein (Homo sapiens)	95 to 100%
O=C(/C=C/c1ccccc1O)CC(=O)/C=C/c1cc(O)ccc1O	Amyloid-beta precursor protein (Homo sapiens)	95 to 100%
O=C(/C=C/c1ccc(O)c(O)c1)CC(=O)/C=C/c1cc(O)ccc1O	Amyloid-beta precursor protein (Homo sapiens)	95 to 100%
O=C(/C=C/c1cc(O)ccc1O)CC(=O)/C=C/c1cccc(O)c1O	Amyloid-beta precursor protein (Homo sapiens)	95 to 100%
O=C(/C=C/c1ccc(O)cc1)CC(=O)/C=C/c1cccc(O)c1O	Amyloid-beta precursor protein (Homo sapiens)	95 to 100%

Provide the reported inhibition of each entry below, same order.
1. O=C(/C=C/c1ccccc1O)CC(=O)/C=C/c1cccc(O)c1O
2. O=C(/C=C/c1cccc(O)c1)CC(=O)/C=C/c1cc(O)ccc1O
3. O=C(/C=C/c1ccc(O)cc1)CC(=O)/C=C/c1cc(O)ccc1O

Result string:
95 to 100%
95 to 100%
95 to 100%

---

I'd appreciate it if you could supply solubility thermodynamic at 12 h values for the items below.
Assay: Aqueous solubility of the compound at 1 mg measured after 12 hrs by shake flask method
Format: physicochemical
Settings: water
One number for each entry, in µM.

Provide the reported solubility thermodynamic at 12 h of each entry below, same order.
1. O=C(/C=C/c1ccc(O)c(O)c1)CC(=O)/C=C/c1cc(O)ccc1O
2. O=C(/C=C/c1cccc(O)c1)/C=C/c1ccc(O)c(O)c1
3. O=C(/C=C/c1ccccc1O)/C=C/c1cccc(O)c1O
4. O=C(/C=C/c1cccc(O)c1)CC(=O)/C=C/c1cccc(O)c1O

Result string:
1. 54
2. 60
3. 151
4. 8.2

---

Biological target: Amyloid-beta precursor protein (Homo sapiens) (UniProt P05067)
Sequence (P05067 whole entry): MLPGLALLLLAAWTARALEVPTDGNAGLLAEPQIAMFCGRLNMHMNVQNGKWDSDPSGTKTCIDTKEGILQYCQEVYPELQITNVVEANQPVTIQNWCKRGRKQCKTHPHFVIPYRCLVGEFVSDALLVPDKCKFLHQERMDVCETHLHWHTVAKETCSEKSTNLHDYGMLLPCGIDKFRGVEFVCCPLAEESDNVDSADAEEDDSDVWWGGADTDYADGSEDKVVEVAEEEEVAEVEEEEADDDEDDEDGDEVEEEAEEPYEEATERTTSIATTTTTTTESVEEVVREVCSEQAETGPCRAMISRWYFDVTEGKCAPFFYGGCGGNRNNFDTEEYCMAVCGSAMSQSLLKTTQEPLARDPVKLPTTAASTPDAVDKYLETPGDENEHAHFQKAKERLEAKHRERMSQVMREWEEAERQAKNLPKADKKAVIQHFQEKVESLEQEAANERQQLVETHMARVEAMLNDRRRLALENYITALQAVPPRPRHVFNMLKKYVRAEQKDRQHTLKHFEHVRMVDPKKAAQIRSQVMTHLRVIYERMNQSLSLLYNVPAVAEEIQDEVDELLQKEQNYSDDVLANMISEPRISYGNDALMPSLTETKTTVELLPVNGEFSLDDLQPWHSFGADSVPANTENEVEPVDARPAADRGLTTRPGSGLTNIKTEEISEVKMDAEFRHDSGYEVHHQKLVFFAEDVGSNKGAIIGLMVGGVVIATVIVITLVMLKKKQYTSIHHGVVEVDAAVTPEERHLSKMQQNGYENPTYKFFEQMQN
Assay: Inhibition of self-induced amyloid beta 42 (unknown origin) aggregation at 1 uM incubated for 20 hrs by thioflavin-T fluorescence assay relative to control
Measure name: inhibition (%)
Answers are plain numbers, in %.

Guide cases for inhibition, answers given:
Molecule	Readout units	inhibition
O=C(/C=C/c1cccc(O)c1)CC(=O)c1ccc(O)c(O)c1	%	85
O=C(/C=C/c1cccc(O)c1)/C=C/c1ccc(O)c(O)c1	%	100
O=C(/C=C/c1cccc(O)c1)CC(=O)/C=C/c1cc(O)ccc1O	%	56

Please look at the following compound next.
Query string: Lab note: need inhibition for "O=C(/C=C/c1ccc(O)cc1)/C=C/c1cccc(O)c1O" on Amyloid-beta precursor protein (Homo sapiens) (UniProt P05067), anyone have it?
Result string: 96

---

I'd appreciate it if you could supply CC50 at 24 h values for the items below.
Test: Cytotoxicity against rat PC12 cells measured after 24 hrs by WST8/PMS assay
Format: cell-based, PC-12

Guide cases for CC50 at 24 h, answers given:
Molecule	CC50 at 24 h
O=C(/C=C/c1ccccc1O)CC(=O)c1ccc(O)c(O)c1	> 90 µM
O=C(/C=C/c1cccc(O)c1)CC(=O)c1ccc(O)c(O)c1	> 100 µM
O=C(/C=C/c1ccc(O)c(O)c1)/C=C/c1cc(O)ccc1O	39 µM

Provide the reported CC50 at 24 h of each entry below, same order.
1. O=C(/C=C/c1cc(O)ccc1O)CC(=O)/C=C/c1cc(O)ccc1O
2. O=C(/C=C/c1cc(O)ccc1O)CC(=O)/C=C/c1cccc(O)c1O

Result string:
1: 24 µM; 2: 53 µM

Provide the reported CC50 at 24 h of each entry below, same order.
1. O=C(/C=C/c1cc(O)ccc1O)/C=C/c1cccc(O)c1O
2. O=C(/C=C/c1ccccc1O)/C=C/c1cccc(O)c1O
3. O=C(/C=C/c1ccc(O)c(O)c1)/C=C/c1ccccc1O
4. O=C(/C=C/c1ccccc1O)CC(=O)/C=C/c1cccc(O)c1O

Result string:
59 µM
54 µM
34 µM
34 µM
